tested on: KB V1 cells; test: SRB growth inhibition assay, KB V1; format: cell-based, human; details: Homo sapiens, KB-V1, 72 h, read-out: IC50 (cytotoxicity)
pIC50: −log10 of the molar value.
EXPERIMENTAL_READOUT: pIC50

COMPOUND: COc1ccc(C[C@H](N)C(=O)N[C@H]2[C@@H](O)[C@H](n3cnc4c(N(C)C)ncnc43)O[C@@H]2CO)cc1 [Puromycin]
ASSAY_RESULT: 4.10

----------
This listing pairs molecules with measured Cell cycle distribution, G2/M.
test system: HepG2-DR cells; assay: Cell cycle distribution by flow cytometry (doxorubicin-induced G2/M arrest), HepG2-DR; assay type: cell-based, human; conditions: HepG2-DR, 1 μM doxorubicin + 1 μM test compound, 48 h

MOLECULE: COc1ccc(/C=C/C(=O)O[C@@H]2[C@@H](OC(=O)/C=C/c3ccc(OC)c(OC)c3)c3c(ccc4ccc(=O)oc34)OC2(C)C)cc1OC (racemic) [trans-DMDCK]
Cell cycle distribution, G2/M [%]: 48.46
//
MOLECULE: COc1ccc(/C=C/C(=O)O[C@@H]2c3c(ccc4ccc(=O)oc34)OC(C)(C)[C@@H]2OC(=O)/C=C/c2ccc(OC)c(OC)c2)cc1OC (racemic) [cis-DMDCK]
Cell cycle distribution, G2/M [%]: 81.42
//
MOLECULE: COc1ccc(C(=O)O[C@@H]2[C@@H](OC(=O)c3ccc(OC)c(OC)c3)c3c(ccc4ccc(=O)oc34)OC2(C)C)cc1OC (racemic) [trans-DMDBK]
Cell cycle distribution, G2/M [%]: 49.53
//
MOLECULE: COc1ccc(C(=O)O[C@@H]2c3c(ccc4ccc(=O)oc34)OC(C)(C)[C@@H]2OC(=O)c2ccc(OC)c(OC)c2)cc1OC (racemic) [cis-DMDBK]
Cell cycle distribution, G2/M [%]: 73.03
